Target: neuronal nicotinic acetylcholine receptors (Rattus norvegicus, UniProt P09483+P12390)
Construct: crude synaptic membrane preparations from whole rat brain; from tissue; host or cells: whole rat brain, crude synaptic membranes
Sequence (P09483 31-630): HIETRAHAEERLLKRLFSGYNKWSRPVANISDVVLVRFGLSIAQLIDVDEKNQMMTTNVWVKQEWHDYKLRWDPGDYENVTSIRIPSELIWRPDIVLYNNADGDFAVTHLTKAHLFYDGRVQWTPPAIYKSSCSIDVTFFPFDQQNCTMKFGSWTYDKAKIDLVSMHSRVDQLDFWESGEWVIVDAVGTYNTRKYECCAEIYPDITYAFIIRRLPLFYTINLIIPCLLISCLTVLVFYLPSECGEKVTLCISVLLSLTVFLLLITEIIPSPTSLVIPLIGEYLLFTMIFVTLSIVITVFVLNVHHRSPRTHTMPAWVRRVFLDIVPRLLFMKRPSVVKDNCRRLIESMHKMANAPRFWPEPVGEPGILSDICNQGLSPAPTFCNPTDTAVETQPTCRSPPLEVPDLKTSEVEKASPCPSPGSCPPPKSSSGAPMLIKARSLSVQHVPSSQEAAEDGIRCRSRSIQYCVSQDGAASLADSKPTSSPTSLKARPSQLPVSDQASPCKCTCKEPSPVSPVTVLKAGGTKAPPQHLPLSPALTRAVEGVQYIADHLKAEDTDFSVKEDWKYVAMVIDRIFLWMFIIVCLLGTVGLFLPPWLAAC
Sequence (P12390 25-500): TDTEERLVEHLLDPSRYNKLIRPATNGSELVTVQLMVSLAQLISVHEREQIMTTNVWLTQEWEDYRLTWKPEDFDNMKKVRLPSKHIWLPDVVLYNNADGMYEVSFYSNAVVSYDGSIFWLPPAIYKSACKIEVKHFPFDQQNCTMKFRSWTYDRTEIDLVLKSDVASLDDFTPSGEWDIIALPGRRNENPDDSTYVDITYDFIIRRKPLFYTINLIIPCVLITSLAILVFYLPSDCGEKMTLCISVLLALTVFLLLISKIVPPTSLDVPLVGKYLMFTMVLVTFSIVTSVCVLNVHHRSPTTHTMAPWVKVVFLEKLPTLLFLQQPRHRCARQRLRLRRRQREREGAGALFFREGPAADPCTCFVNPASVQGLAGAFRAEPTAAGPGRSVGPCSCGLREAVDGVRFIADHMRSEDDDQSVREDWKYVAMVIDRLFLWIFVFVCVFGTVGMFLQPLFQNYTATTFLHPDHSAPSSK
Test: [3H]-cytisine binding to neuronal nicotinic acetylcholine receptors, crude synaptic membranes from whole rat brain
pKi: −log10 of the molar value. Structures can show the parent of a compound that is named as a salt.
Classification field: enter Satisfied for pKi values not below 10, Not satisfied for values below it.

Some solved entries appear below for comparison.
[
  {
    "molecule": "c1ncc(N2C[C@@H]3C[C@H]2CN3)cn1 [Example 52, 4-methylbenzenesulfonate]",
    "tgt": "neuronal nicotinic acetylcholine receptors (Rattus norvegicus, UniProt P09483+P12390)",
    "class": "Not satisfied"
  },
  {
    "molecule": "Cc1cc(N2C[C@@H]3C[C@H]2CN3)sn1 [Example 54]",
    "tgt": "neuronal nicotinic acetylcholine receptors (Rattus norvegicus, UniProt P09483+P12390)",
    "class": "Not satisfied"
  },
  {
    "molecule": "c1cncc(N2CCC3CCC(C2)N3)c1 (centres unmarked) [Example 41, bis(4-methylbenzenesulfonate)]",
    "tgt": "neuronal nicotinic acetylcholine receptors (Rattus norvegicus, UniProt P09483+P12390)",
    "class": "Satisfied"
  },
  {
    "molecule": "COc1cncc(N2C[C@@H]3C[C@H]2CN3)c1 [Example 43, bis(4-methylbenzenesulfonate)]",
    "tgt": "neuronal nicotinic acetylcholine receptors (Rattus norvegicus, UniProt P09483+P12390)",
    "class": "Not satisfied"
  },
  {
    "molecule": "Fc1ccc(N2C[C@H]3C[C@@H]2CN3)cn1 [Example 33, 4-methylbenzenesulfonate]",
    "tgt": "neuronal nicotinic acetylcholine receptors (Rattus norvegicus, UniProt P09483+P12390)",
    "class": "Satisfied"
  }
]

# input Assess whether reported pKi for Brc1cncc(N2C[C@@H]3C[C@H]2CN3)c1 [Example 31, 4-methylbenzenesulfonate] sits at 10 or higher.
# output Not satisfied

# input Does pKi meet or surpass 10 for c1cnnc(N2CC3CCC(C2)N3)c1 [Example 14, dihydrochloride] ?
# output Not satisfied

###

Target: neuronal nicotinic acetylcholine receptors (Rattus norvegicus, UniProt P09483+P12390)
Construct: crude synaptic membrane preparations from whole rat brain; from tissue; host or cells: whole rat brain, crude synaptic membranes
Test: [3H]-cytisine binding to neuronal nicotinic acetylcholine receptors, crude synaptic membranes from whole rat brain
Structures can show the parent of a compound that is named as a salt.
property_measured: log10 of Ki (log10 of the value in nM)
Log10 applied to Ki; unit prior to transform: nM.

Required: log10 of Ki, one value per compound below.
1. Clc1ccc(N2CCC3CCC(C2)N3)cn1 (centres unmarked) [Example 36, hydrochloride]
2. N#CCN1C[C@H]2C[C@@H]1CN2c1ccc(Cl)nc1 [Example 27, 4-methylbenzenesulfonate]
3. c1cncc(CN2C[C@H]3C[C@@H]2CN3)c1 [Example 20, trihydrobromide]
4. Clc1ccc(N2C[C@@H]3C[C@H]2CN3)nc1 [Example 18, dihydrochloride, reference compound]
5. c1cnnc(N2C[C@@H]3C[C@H]2CN3)c1 [Example 29, 4-methylbenzenesulfonate]
6. Cc1cc(N2C[C@@H]3C[C@H]2CN3C)nnc1Cl [Example 6, bis(4-methylbenzenesulfonate)]

# output
1: -1.22; 2: -1.30; 3: 1.72; 4: 2.60; 5: 1.57; 6: 1.34

Batch lookup, log10 of Ki per entry.
1. N#Cc1cncc(N2C[C@@H]3C[C@H]2CN3)c1 [Example 32, 4-methylbenzenesulfonate]
2. Clc1ccc(N2C3CCNCC2CC3)cn1 (centres unmarked) [Example 56, fumarate]

# output
[0.20, -0.68]

###

Molecular target: neuronal nicotinic acetylcholine receptors (Rattus norvegicus, UniProt P09483+P12390)
Construct: crude synaptic membrane preparations from whole rat brain; from tissue; host or cells: whole rat brain, crude synaptic membranes
Experiment: [3H]-cytisine binding to neuronal nicotinic acetylcholine receptors, crude synaptic membranes from whole rat brain
Conditions: [3H]-CYT 1.25 nM, 60 minutes at 4 °C, whole rat brain membranes; Ki from IC50 by Cheng and Prusoff correction; read-out: Average Ki
Counter-ions that a name gives are not always drawn.
For each of the compounds below, state its Ki.
One number for each entry, in nM.

[
  {
    "compound": "c1cncc(N2CC3CCC2CN3)c1 (centres unmarked) [Example 42, dihydrochloride]",
    "tgt": "neuronal nicotinic acetylcholine receptors (Rattus norvegicus, UniProt P09483+P12390)",
    "Ki (nM)": 0.02
  },
  {
    "compound": "c1cncc(N2CC3CNCC(C3)C2)c1 [Example 57, bis(4-methylbenzenesulfonate)]",
    "tgt": "neuronal nicotinic acetylcholine receptors (Rattus norvegicus, UniProt P09483+P12390)",
    "Ki (nM)": 0.02
  },
  {
    "compound": "Clc1ccc(N2CCC3CC2CN3)cn1 (centres unmarked) [Example 35, trihydrochloride]",
    "tgt": "neuronal nicotinic acetylcholine receptors (Rattus norvegicus, UniProt P09483+P12390)",
    "Ki (nM)": 1.5
  },
  {
    "compound": "O=[N+]([O-])c1ccc(N2CC3CC2CN3)cn1 (centres unmarked)",
    "tgt": "neuronal nicotinic acetylcholine receptors (Rattus norvegicus, UniProt P09483+P12390)",
    "Ki (nM)": 109
  }
]

For the next question, use this compound.
# input Can you share its Ki? I mean this compound: NC(=O)c1cncc(N2CC3CC2CN3)c1 (centres unmarked)
# output 0.83

###

Target: neuronal nicotinic acetylcholine receptors (Rattus norvegicus, UniProt P09483+P12390)
Construct: crude synaptic membrane preparations from whole rat brain; from tissue; host or cells: whole rat brain, crude synaptic membranes
Test: [3H]-cytisine binding to neuronal nicotinic acetylcholine receptors, crude synaptic membranes from whole rat brain
Structures can show the parent of a compound that is named as a salt.
property_measured: Ki (nM)
One number for each entry, in nM.

[
  {
    "compound": "c1cnnc(N2C[C@H]3C[C@@H]2CN3)c1 [Example 25, 4-methylbenzenesulfonate]",
    "tgt": "neuronal nicotinic acetylcholine receptors (Rattus norvegicus, UniProt P09483+P12390)",
    "unit_descriptor": "nM",
    "Ki": 0.4
  }
]

State recorded Ki for all listed compounds.
1. c1cnc2cc(N3C[C@H]4C[C@@H]3CN4)sc2c1 [Example 55, acetate]
2. NCc1cncc(N2C[C@@H]3C[C@H]2CN3)c1 [Example 34, trihydrochloride]
3. Clc1ccc(N2CC3CNCC(C3)C2)cn1 [Example 58, 4-methylbenzenesulfonate]

# output
1. 0.84
2. 140
3. 0.02

###

Molecular target: neuronal nicotinic acetylcholine receptors (Rattus norvegicus, UniProt P09483+P12390)
Construct: crude synaptic membrane preparations from whole rat brain; from tissue; host or cells: whole rat brain, crude synaptic membranes
Assay: [3H]-cytisine binding to neuronal nicotinic acetylcholine receptors, crude synaptic membranes from whole rat brain
pKi: −log10 of the molar value. Structures can show the parent of a compound that is named as a salt.
Assign rule met whenever pKi does not fall below 9; assign rule not met whenever it does.

As a guide, the following entries are already answered.
[
  {
    "compound": "Nc1ccc(N2CC3CCC(C2)N3)cn1 [Example 11, trihydrochloride]",
    "class": "rule not met"
  },
  {
    "compound": "Nc1ccc(N2C[C@@H]3C[C@H]2CN3)cn1 [Example 3, trihydrochloride]",
    "class": "rule not met"
  },
  {
    "compound": "c1cncc(N2CC3CCC(C2)N3)c1 [Example 13, dihydrochloride]",
    "class": "rule met"
  },
  {
    "compound": "NC(=O)c1cncc(N2C[C@@H]3C[C@H]2CN3)c1 [Example 38, bis(4-methylbenzenesulfonate)]",
    "class": "rule not met"
  }
]

# input Threshold query (pKi >= 9) on c1cncc(N2C[C@@H]3C[C@H]2CN3)c1 [Example 17, 4-methylbenzenesulfonate]
# output rule met

# input Could you verify whether the entry Clc1ccc(N2C[C@@H]3C[C@H]2CN3)cn1 [Example 1, 4-methylbenzenesulfonate] shows pKi of no less than 9?
# output rule met

# input Is pKi for CN1C[C@@H]2C[C@H]1CN2c1nnc(Cl)c2ccccc12 [Example 8, bis(4-methylbenzenesulfonate)] at or above 9?
# output rule not met

# input Entry Clc1nnc(N2C[C@@H]3C[C@H]2CN3)c2ccccc12 [Example 7, bis(4-methylbenzenesulfonate)] : is its pKi no less than 9?
# output rule not met

###

Biological target: neuronal nicotinic acetylcholine receptors (Rattus norvegicus, UniProt P09483+P12390)
Construct: crude synaptic membrane preparations from whole rat brain; from tissue; host or cells: whole rat brain, crude synaptic membranes
Experiment: [3H]-cytisine binding to neuronal nicotinic acetylcholine receptors, crude synaptic membranes from whole rat brain
Counter-ions that a name gives are not always drawn.
Provide the recorded Ki for the entries that follow.
Please format your answer as a value with the unit trailing.

Example results:
[
  {
    "compound": "CN1C2CCC1CN(c1cccnc1)CC2 (centres unmarked) [Example 37, 4-methylbenzenesulfonate]",
    "tgt": "neuronal nicotinic acetylcholine receptors (Rattus norvegicus, UniProt P09483+P12390)",
    "Ki": "0.55 nM"
  },
  {
    "compound": "Oc1cc(N2C[C@H]3C[C@@H]2CN3)cnc1Cl [Example 40, 4-methylbenzenesulfonate]",
    "tgt": "neuronal nicotinic acetylcholine receptors (Rattus norvegicus, UniProt P09483+P12390)",
    "Ki": "0.17 nM"
  },
  {
    "compound": "Fc1ccc(N2C[C@@H]3C[C@H]2CN3)cn1 [Example 30, bis(4-methylbenzenesulfonate)]",
    "tgt": "neuronal nicotinic acetylcholine receptors (Rattus norvegicus, UniProt P09483+P12390)",
    "Ki": "0.17 nM"
  }
]

Required: Ki, one value per compound below.
1. Clc1ccc(N2CC3CCC(C2)N3)cn1 [Example 12, dihydrochloride]
2. c1ccc2ncc(N3C[C@@H]4C[C@H]3CN4)cc2c1 [Example 53, acetate]

# output
93 nM
17 nM
